# measurement.target: Recombinant human his-tagged IGF 1R extracellular domain protein (human) (UniProt P08069)
# measurement.notes: SPR, captured IgG, IGF-1R ECD-his analyte, dissociation pH 6
endpoint.label: koff

{"binder": "VRDN-02537 (antibody, V domains shown) VH: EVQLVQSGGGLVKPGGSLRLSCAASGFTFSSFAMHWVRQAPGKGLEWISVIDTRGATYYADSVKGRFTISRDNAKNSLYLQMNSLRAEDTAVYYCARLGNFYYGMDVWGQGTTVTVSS VL: EIVLTQSPGTLSVSPGERATLSCRASQSIGSSHHWYQQKPGQAPRLLIKYASQSLSGIPDRFSGSGSGTDFTLTISRLEPEDFAVYYCHQSSRLPHTFGQGTKVEIK", "reading": "1e-06 s⁻¹"}
